- system_under_test: Progesterone receptor (Homo sapiens)
- Sequence (P06401 whole entry): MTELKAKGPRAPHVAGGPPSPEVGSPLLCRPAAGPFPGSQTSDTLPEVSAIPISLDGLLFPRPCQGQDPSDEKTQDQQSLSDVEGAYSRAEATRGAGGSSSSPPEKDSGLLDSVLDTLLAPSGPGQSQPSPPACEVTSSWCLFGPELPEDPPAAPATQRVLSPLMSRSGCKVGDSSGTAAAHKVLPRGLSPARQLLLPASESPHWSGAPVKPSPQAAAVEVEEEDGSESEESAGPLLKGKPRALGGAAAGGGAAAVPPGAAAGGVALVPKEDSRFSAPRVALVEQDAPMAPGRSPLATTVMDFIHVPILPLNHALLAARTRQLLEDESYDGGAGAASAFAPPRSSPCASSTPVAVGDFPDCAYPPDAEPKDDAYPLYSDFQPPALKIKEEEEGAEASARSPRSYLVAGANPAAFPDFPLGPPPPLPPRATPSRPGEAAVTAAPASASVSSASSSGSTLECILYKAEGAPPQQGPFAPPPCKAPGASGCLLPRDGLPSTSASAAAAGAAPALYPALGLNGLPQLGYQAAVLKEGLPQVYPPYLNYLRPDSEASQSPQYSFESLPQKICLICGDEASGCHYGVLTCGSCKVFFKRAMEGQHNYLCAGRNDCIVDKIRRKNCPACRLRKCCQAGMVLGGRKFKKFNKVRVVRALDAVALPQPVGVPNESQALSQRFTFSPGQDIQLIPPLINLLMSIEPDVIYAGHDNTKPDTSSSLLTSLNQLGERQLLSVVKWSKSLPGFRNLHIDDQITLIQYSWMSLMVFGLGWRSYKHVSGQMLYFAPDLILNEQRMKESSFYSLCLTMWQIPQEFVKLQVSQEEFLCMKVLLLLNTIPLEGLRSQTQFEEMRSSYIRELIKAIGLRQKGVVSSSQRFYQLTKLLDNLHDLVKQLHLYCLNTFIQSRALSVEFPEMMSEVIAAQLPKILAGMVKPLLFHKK
- assay_comment: Agonist activity at progesterone receptor (unknown origin) expressed in HEK293 cells assessed as transcriptional activation
pEC50: −log10 of the molar value.
measured_parameter: pEC50

# pEC50 (molecule: "Cn1cc(C(=O)O)c2ccc(N3CCC(OCc4c(-c5c(Cl)cccc5Cl)noc4C4CC4)CC3)cc21" ) is < 5.00

====

- system_under_test: Glucocorticoid receptor (Homo sapiens)
- Sequence (P04150 whole entry): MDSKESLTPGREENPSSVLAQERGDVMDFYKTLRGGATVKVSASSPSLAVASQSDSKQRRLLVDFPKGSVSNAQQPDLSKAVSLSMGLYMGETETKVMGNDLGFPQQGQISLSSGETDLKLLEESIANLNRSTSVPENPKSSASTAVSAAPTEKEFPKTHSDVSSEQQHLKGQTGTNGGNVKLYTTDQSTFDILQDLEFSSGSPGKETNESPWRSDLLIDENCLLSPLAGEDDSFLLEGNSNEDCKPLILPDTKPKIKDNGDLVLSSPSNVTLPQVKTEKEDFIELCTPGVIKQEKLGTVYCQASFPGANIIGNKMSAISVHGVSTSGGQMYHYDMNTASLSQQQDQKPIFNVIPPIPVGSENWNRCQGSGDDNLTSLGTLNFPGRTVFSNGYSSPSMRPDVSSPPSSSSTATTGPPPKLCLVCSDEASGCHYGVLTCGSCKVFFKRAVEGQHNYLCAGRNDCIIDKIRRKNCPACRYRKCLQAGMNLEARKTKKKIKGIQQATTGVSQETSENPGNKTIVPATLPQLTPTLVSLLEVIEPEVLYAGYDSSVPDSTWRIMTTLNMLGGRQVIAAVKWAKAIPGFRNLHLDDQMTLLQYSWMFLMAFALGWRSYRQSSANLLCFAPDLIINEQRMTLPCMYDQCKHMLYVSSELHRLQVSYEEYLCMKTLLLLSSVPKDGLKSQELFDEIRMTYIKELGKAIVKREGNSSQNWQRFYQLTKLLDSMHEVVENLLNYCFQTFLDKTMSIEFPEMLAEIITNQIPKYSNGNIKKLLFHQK
- assay_comment: Agonist activity at glucocorticoid receptor (unknown origin) expressed in HEK293 cells assessed as transcriptional activation
measured_parameter: EC50

The reported value for Cn1cc(C(=O)O)c2ccc(N3CCC(OCc4c(-c5c(Cl)cccc5Cl)noc4C4CC4)CC3)cc21 [TERN-101] in terms of EC50 is > 10 µM
